# Type: in vitro ADME, hog
# condition_label: pH 7
Square brackets hold non-standard residues; d marks the D form. Peptide text beside a SMILES is read from it. * marks the point of attachment. X1 = C[N+](C)(C)[C@@H](Cc1ccccc1)C(=O)*; NMe2Phe = CN(C)[C@@H](Cc1ccccc1)C(=O)*; NMeF = CN[C@@H](Cc1ccccc1)C(=O)O
Hi! Just check whether T1/2 is below 100. Below gives Met, equal or above gives Not met.

Solved cases below.
CC[C@H](C)[C@H](NC(=O)[C@@H]1CCCN1C(=O)[C@@H](NC(=O)[C@H](Cc1ccccc1)N(C)C)C(C)C)C(=O)N[C@@H](Cc1ccccc1)C(=O)N[C@H](C(=O)N[C@@H](Cc1ccc(O)cc1)C(=O)NCC(=O)N[C@@H](CCC(=O)O)C(=O)N[C@@H](CC(C)C)C(=O)N[C@@H](C)C(=O)N[C@H](CCCNC(=N)N)C(=O)N[C@@H](CC(C)C)C(=O)N[C@H](CCCCN)C(N)=O)[C@@H](C)O (NMe2Phe-VPIFTYGELA[dR]L[dK]-NH2)	Met
CC[C@H](C)[C@H](NC(=O)[C@@H]1CCCN1C(=O)[C@@H](NC(=O)[C@H](Cc1ccccc1)[N+](C)(C)C)C(C)C)C(=O)N[C@@H](Cc1ccccc1)C(=O)N[C@H](C(=O)N[C@@H](Cc1ccc(O)cc1)C(=O)NCC(=O)N[C@@H](CCC(=O)O)C(=O)N[C@@H](CC(C)C)C(=O)N[C@@H](CCC(N)=O)C(=O)N[C@H](CCCNC(=N)N)C(=O)N[C@@H](CC(C)C)C(=O)N[C@@H](CCC(N)=O)C(N)=O)[C@@H](C)O (X1-VPIFTYGELQ[dR]LQ-NH2)	Met
CC[C@H](C)[C@H](NC(=O)[C@@H]1CCCN1C(=O)[C@@H](NC(=O)[C@H](Cc1ccccc1)[N+](C)(C)C)C(C)C)C(=O)N[C@@H](Cc1ccccc1)C(=O)N[C@H](C(=O)N[C@@H](Cc1ccc(O)cc1)C(=O)NCC(=O)N[C@@H](CCC(=O)O)C(=O)N[C@@H](CC(C)C)C(=O)N[C@@H](CCC(N)=O)C(=O)N[C@H](CCCNC(=N)N)C(=O)N[C@@H](CC(C)C)C(=O)N[C@H](CCC(N)=O)C(N)=O)[C@@H](C)O (X1-VPIFTYGELQ[dR]L[dQ]-NH2)	Not met
CC[C@H](C)[C@H](NC(=O)[C@@H]1CCCN1C(=O)[C@@H](NC(=O)[C@H](Cc1ccccc1)[N+](C)(C)C)C(C)C)C(=O)N[C@@H](Cc1ccccc1)C(=O)N[C@H](C(=O)N[C@@H](Cc1ccc(O)cc1)C(=O)NCC(=O)N[C@@H](CCC(=O)O)C(=O)N[C@@H](CC(C)C)C(=O)N[C@@H](CCC(N)=O)C(=O)N[C@H](CCCNC(=N)N)C(=O)N[C@@H](CC(C)C)C(=O)N[C@@H](CCCCN)C(N)=O)[C@@H](C)O (X1-VPIFTYGELQ[dR]LK-NH2)	Not met
CC[C@H](C)[C@H](NC(=O)[C@@H]1CCCN1C(=O)[C@@H](NC(=O)[C@H](Cc1ccccc1)NC)C(C)C)C(=O)N[C@@H](Cc1ccccc1)C(=O)N[C@H](C(=O)N[C@@H](Cc1ccc(O)cc1)C(=O)NCC(=O)N[C@@H](CCC(=O)O)C(=O)N[C@@H](CC(C)C)C(=O)N[C@@H](CCC(N)=O)C(=O)N[C@@H](CCCNC(=N)N)C(=O)N[C@@H](CC(C)C)C(=O)N[C@@H](CCC(N)=O)C(=O)O)[C@@H](C)O [[N-MePhe^1, Leu^13]pMOT(1-14)] (H-[NMeF]VPIFTYGELQRLQ-OH)	Met

Query block: API: query returns whether the compound falls strictly under 100 in T1/2. Query: CC[C@H](C)[C@H](NC(=O)[C@@H]1CCCN1C(=O)[C@@H](NC(=O)[C@H](Cc1ccccc1)[N+](C)(C)C)C(C)C)C(=O)N[C@@H](Cc1ccccc1)C(=O)N[C@H](C(=O)N[C@@H](Cc1ccc(O)cc1)C(=O)NCC(=O)N[C@@H](CCC(=O)O)C(=O)N[C@@H](CC(C)C)C(=O)N[C@@H](C)C(=O)N[C@H](CCCNC(=N)N)C(=O)N[C@@H](CC(C)C)C(=O)N[C@@H](CCC(N)=O)C(N)=O)[C@@H](C)O (X1-VPIFTYGELA[dR]LQ-NH2)
Result block: Not met
